TESTED TARGET: pkLAP (microsomal LAP from porcine kidney) (Sus scrofa)
Construct: purchased Sigma; host or cells: porcine kidney
Sequence (P15145 whole entry): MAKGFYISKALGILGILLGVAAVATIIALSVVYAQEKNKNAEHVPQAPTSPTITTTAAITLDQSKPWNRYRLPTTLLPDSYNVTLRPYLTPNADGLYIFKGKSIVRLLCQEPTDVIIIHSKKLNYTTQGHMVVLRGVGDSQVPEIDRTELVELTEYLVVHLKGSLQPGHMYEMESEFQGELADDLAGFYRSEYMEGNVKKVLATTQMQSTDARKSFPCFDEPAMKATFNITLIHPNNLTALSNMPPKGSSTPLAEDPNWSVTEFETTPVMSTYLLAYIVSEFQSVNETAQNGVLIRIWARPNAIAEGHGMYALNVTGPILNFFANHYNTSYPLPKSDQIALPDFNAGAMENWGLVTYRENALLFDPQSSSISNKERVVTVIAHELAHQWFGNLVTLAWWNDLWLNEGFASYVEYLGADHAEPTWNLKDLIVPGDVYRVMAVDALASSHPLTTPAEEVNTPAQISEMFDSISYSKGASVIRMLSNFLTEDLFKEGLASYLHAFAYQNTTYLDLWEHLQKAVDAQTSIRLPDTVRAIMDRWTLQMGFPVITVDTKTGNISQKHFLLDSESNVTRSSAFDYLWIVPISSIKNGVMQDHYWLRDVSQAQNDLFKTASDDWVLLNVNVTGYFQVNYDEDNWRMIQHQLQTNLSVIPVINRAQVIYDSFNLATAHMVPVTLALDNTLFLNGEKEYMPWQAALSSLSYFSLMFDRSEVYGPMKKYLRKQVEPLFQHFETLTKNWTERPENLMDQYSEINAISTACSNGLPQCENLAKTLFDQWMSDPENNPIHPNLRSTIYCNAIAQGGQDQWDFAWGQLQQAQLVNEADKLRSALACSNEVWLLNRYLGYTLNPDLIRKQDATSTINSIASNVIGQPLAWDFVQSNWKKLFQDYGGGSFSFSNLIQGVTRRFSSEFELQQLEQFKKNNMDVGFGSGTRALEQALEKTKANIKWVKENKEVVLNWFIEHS
METHOD NOTES: Effect of chemical reagents (inhibitors, metallic cations) on LAP activity with Leu-AMC
Assay type: biochemical
CONDITION SET: cation salt 0.5 mM; Leu-MCA substrate
Exercise: for every item that follows, state its recorded pkLAP hydrolytic activity, percentage of control without any cation.
Field format: number, assumed %, no unit text.

The reported pkLAP hydrolytic activity, percentage of control without any cation of the molecule "[Cl][Ni][Cl]" was 1187.7

Per the records, this molecule ( "[Cl-].[Cl-].[Zn+2]" ) has pkLAP hydrolytic activity, percentage of control without any cation equal to 437.6

Value of measured pkLAP hydrolytic activity, percentage of control without any cation for the entry "[Cl-].[Cl-].[Co+2]" : 876.1

Kindly note the recorded pkLAP hydrolytic activity, percentage of control without any cation for "[Cl-].[Cl-].[Mg+2]" , which is 130.1

For this molecule ( "[Ca+2].[Cl-].[Cl-]" ), measured pkLAP hydrolytic activity, percentage of control without any cation is 177.4

Kindly note the recorded pkLAP hydrolytic activity, percentage of control without any cation for "[Cl][Cu][Cl]" , which is 1422.0

The recorded pkLAP hydrolytic activity, percentage of control without any cation for "[Cl][Mn][Cl]" is 157.6

* * *

TESTED TARGET: fuLAP1 (Aspergillus fumigatus, UniProt Q5VJG6)
Sequence (Q5VJG6 15-388, looked up, natural form): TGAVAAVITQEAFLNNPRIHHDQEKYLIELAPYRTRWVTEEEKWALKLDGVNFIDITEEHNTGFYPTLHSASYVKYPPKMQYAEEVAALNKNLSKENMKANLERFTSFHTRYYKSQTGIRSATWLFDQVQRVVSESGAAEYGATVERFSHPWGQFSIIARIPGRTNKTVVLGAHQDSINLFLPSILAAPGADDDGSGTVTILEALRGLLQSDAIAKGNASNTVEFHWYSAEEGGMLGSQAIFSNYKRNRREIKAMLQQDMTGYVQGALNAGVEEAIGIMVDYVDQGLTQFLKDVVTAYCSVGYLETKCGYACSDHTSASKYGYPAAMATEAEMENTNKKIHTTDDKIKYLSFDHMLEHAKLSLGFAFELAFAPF
Type: biochemical
CONDITION SET: cation salt 0.5 mM; Leu-MCA substrate
Can you tell me fuLAP1 hydrolytic activity, percentage of control without any cation for the items I'm about to list?
Numbers only here, please. The scale is %.

"[Cl-].[Cl-].[Mg+2]" yielded fuLAP1 hydrolytic activity, percentage of control without any cation of 68.5

The measured fuLAP1 hydrolytic activity, percentage of control without any cation associated with "[Cl][Mn][Cl]" reads 25.9

Notebook: "[Cl][Ni][Cl]" , fuLAP1 hydrolytic activity, percentage of control without any cation read as 51.7

Lab book: fuLAP1 hydrolytic activity, percentage of control without any cation of "[Ca+2].[Cl-].[Cl-]" noted as 54.9

Please fill in: fuLAP1 hydrolytic activity, percentage of control without any cation reported for "[Cl][Cu][Cl]" = 25.8

Documented fuLAP1 hydrolytic activity, percentage of control without any cation of "[Cl-].[Cl-].[Co+2]" : 104.3

Entry under test: "[Cl-].[Cl-].[Zn+2]" . Its fuLAP1 hydrolytic activity, percentage of control without any cation was 60.7

* * *

What ruLAP1 hydrolytic activity, percentage of control without any cation was measured for each of the following?
TESTED TARGET: ruLAP1 (Trichophyton rubrum, UniProt Q5QHG5)
Sequence (Q5QHG5 19-373): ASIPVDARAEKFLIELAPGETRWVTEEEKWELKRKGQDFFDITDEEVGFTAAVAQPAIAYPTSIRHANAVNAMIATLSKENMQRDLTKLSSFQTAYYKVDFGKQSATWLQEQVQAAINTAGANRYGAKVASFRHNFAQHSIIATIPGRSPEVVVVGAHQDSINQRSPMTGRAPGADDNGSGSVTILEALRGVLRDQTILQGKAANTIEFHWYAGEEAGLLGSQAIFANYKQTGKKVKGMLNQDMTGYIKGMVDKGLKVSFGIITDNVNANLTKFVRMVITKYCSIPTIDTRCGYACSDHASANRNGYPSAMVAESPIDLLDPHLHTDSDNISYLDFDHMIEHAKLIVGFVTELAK
Format: biochemical
CONDITION SET: cation salt 0.5 mM; Leu-MCA substrate
A number alone suffices; assume %.

Hey, ruLAP1 (Trichophyton rubrum, UniProt Q5QHG5) data for "[Cl-].[Cl-].[Co+2]" : ruLAP1 hydrolytic activity, percentage of control without any cation came out at 210.2

Here "[Cl][Mn][Cl]" was tested on ruLAP1 (Trichophyton rubrum, UniProt Q5QHG5), and its ruLAP1 hydrolytic activity, percentage of control without any cation came to 120.7

Known value: ruLAP1 (Trichophyton rubrum, UniProt Q5QHG5) ruLAP1 hydrolytic activity, percentage of control without any cation of the compound "[Cl-].[Cl-].[Mg+2]" equals 129.9

ruLAP1 hydrolytic activity, percentage of control without any cation on ruLAP1 (Trichophyton rubrum, UniProt Q5QHG5) for "[Ca+2].[Cl-].[Cl-]" is 151.7

ruLAP1 hydrolytic activity, percentage of control without any cation value, target or system ruLAP1 (Trichophyton rubrum, UniProt Q5QHG5), for "[Cl-].[Cl-].[Zn+2]" : 43.0

Result for "[Cl][Ni][Cl]" , tested on ruLAP1 (Trichophyton rubrum, UniProt Q5QHG5), ruLAP1 hydrolytic activity, percentage of control without any cation: 74.8
